Measured melting point by item

{"compound": "O=c1c(O)c(-c2ccc(OCc3ccccc3)c(OCc3ccccc3)c2)oc2cc(OCc3ccccc3)ccc12", "melting point": "120 to 121 °C"}
{"compound": "O=c1[nH]c2cc(Cl)ccc2n1C1CCN(CCCC(c2ccc(F)cc2)c2ccc(F)cc2)CC1", "melting point": "186 °C"}
{"compound": "CN1CCN(c2ncnc3c(NC(=O)c4c(Cl)cccc4Cl)cccc23)C1=O", "melting point": "> 250 °C"}
{"compound": "COC(=O)CCCCCCCCC=CCCCCCCCCC(=O)OC", "melting point": "44 °C"}
{"compound": "CC1CCCC(C(=O)c2[nH]c3cc(Cl)ccc3c2N)C1 (stereo not given)", "melting point": "140 to 142 °C"}

* * *

Measured melting point by item

{"compound": "OCCSC(=S)Nc1ccccn1", "melting point": "88 °C"}
{"compound": "Cc1nc[nH]c1CSCCNC1=NC(=O)C(Cc2ccccc2)N1 (stereo not given)", "melting point": "104 to 107 °C"}
{"compound": "COc1cc([C@H](C)O)ccc1OCCCN1CCC(c2noc3cc(F)ccc23)CC1", "melting point": "138 to 139 °C"}
{"compound": "O=C(O)CN1C(=O)C(=Cc2ccc(-c3ccccc3)cc2)SC1=S", "melting point": "258 to 262 °C"}
{"compound": "O=C(Nc1ccc(F)c(NS(=O)(=O)c2cccs2)c1)c1ccc(F)c(F)c1", "melting point": "202 to 203 °C"}
{"compound": "O=C(/C=C/CC1CCN(Cc2ccccc2)CC1)c1ccc(Nc2ncnc3c2CCC3)cc1", "melting point": "184 to 185 °C"}
{"compound": "COc1cccc(-c2nc3n(n2)Cc2cc(Cl)ccc2-3)c1", "melting point": "229 to 230 °C"}
{"compound": "O=C1SCC(O)=C1Cc1ccc(OCCc2ccccc2)cc1", "melting point": "170 to 171 °C"}
{"compound": "COc1cc(N2CCN(C3CCN(c4cccc5cccnc45)CC3)CC2)c2ncccc2c1", "melting point": "194 to 197 °C"}
{"compound": "CCOC1CC(n2cc(CC)c(=O)[nH]c2=O)OC1CNC(=O)Cc1c(Cl)cccc1Cl (stereo not given)", "melting point": "249 to 250 °C"}

* * *

Measured melting point by item
quantityName: melting point

{"compound": "Nc1cc(C(O)=S)cc(Cc2ccccc2)c1C(=O)c1ccccc1", "quantityName": "melting point", "measuredValue": "141 to 142 °C"}
{"compound": "Cc1cc(C(=O)O)ccc1-c1cnc2[nH]c(=O)n(CC3CCCCC3)c2n1", "quantityName": "melting point", "measuredValue": "244 to 247 °C"}
{"compound": "CCCc1c(OCc2ccc(C(=O)O)c(OCC)c2)ccc(C(C)=O)c1O", "quantityName": "melting point", "measuredValue": "145 to 150 °C"}
{"compound": "CC(C)(C)OC(=O)C(=NO)C(=O)CCOCc1ccccc1", "quantityName": "melting point", "measuredValue": "98 to 100 °C"}
{"compound": "COc1cc(N2CCN(c3c(C)c(C)c4c(c3C)CC(C)(C)O4)CC2)ccc1F", "quantityName": "melting point", "measuredValue": "152 to 155 °C"}
{"compound": "Cc1c(C#N)oc2c(-c3ccc(F)cc3)c(-c3ccc(S(N)(=O)=O)cc3)nn12", "quantityName": "melting point", "measuredValue": "231 to 232 °C"}
{"compound": "CC(=O)Nc1c(I)c(C(N)=O)c(I)c(C(=O)NCC(=O)O)c1I", "quantityName": "melting point", "measuredValue": "271 to 272 °C"}
{"compound": "O=C(Nc1ccc(OCC2CCCO2)c([N+](=O)[O-])c1)OCCCl (stereo not given)", "quantityName": "melting point", "measuredValue": "84 to 86 °C"}
{"compound": "COC(=O)COC(=O)C(Cl)=Cc1cc(-n2ncc(C(F)(F)F)c(C)c2=O)c(F)cc1Cl", "quantityName": "melting point", "measuredValue": "88 to 91 °C"}
{"compound": "COc1ccc2c(C(=S)N(C)CC(=O)O)cccc2c1SC(F)(F)F", "quantityName": "melting point", "measuredValue": "168 to 169 °C"}
{"compound": "O=c1[nH]c2cccc(OCC(O)CNCCc3ccc(-n4c(CCC5CCCC5)nc5cccnc54)cc3)c2[nH]1 (stereo not given)", "quantityName": "melting point", "measuredValue": "115 to 117 °C"}
{"compound": "Cc1ccc(S(=O)(=O)CC2COc3ccccc3O2)cc1 (single isomer, unassigned; (+))", "quantityName": "melting point", "measuredValue": "60 °C"}
{"compound": "O=C(O)C(CCc1ccccc1)CC(CCc1ccccc1)C(=O)O (stereo not given)", "quantityName": "melting point", "measuredValue": "95 to 105 °C"}
{"compound": "Cc1c(C)c2c(c(C)c1NC(=O)CC(C)(C)C)C(c1ccc(F)cc1)C(C)(C)O2 (stereo not given)", "quantityName": "melting point", "measuredValue": "194 to 195 °C"}
{"compound": "O=C1CN2CCCCC2=NN1c1ccc(Cl)cc1Cl", "quantityName": "melting point", "measuredValue": "115 to 117 °C"}
{"compound": "COc1ccc2c(c1)c(OCc1ccccc1)c(C(=O)O)n2-c1ccccc1", "quantityName": "melting point", "measuredValue": "123 °C"}
{"compound": "CCOC(=O)c1cn(-c2nccs2)c2nc(Cl)cc(NCc3ccccc3)c2c1=O", "quantityName": "melting point", "measuredValue": "141 to 143 °C"}
{"compound": "COc1ccc2c(Cc3c(Cl)cncc3Cl)nnc(-n3cncn3)c2c1", "quantityName": "melting point", "measuredValue": "207 to 208 °C"}
{"compound": "OCC#CCCCCCCC#Cc1ccc(O)c(O)c1", "quantityName": "melting point", "measuredValue": "81 to 83 °C"}
{"compound": "CC(=O)C(=NNc1ccccc1)C(=O)OCC(C)C", "quantityName": "melting point", "measuredValue": "45 to 50 °C"}

* * *

Measured melting point by item

{"molecule": "Cn1cnnc1C(N)(c1ccc(Cl)cc1)c1ccc2c(c1)c(-c1cccc(Cl)c1)cc(=O)n2C (centres undefined)", "melting point": "210 °C"}
{"molecule": "CN(C)C(=O)Nc1ccc(NCc2ccc(Cl)cc2Cl)cc1N", "melting point": "147 to 152 °C"}
{"molecule": "CCOCCc1ccc(OCC=NO)c(C)c1C", "melting point": "102 to 105 °C"}
{"molecule": "CSc1cc2c(cc1C(F)(F)F)N(C(=O)Nc1cccc(C(=O)NCCN(C(C)C)C(C)C)c1)CC2", "melting point": "97 to 99 °C"}
{"molecule": "COc1ccc(CCNc2nc(C)c(CCO)c(=O)n2C)cc1", "melting point": "210 °C"}
{"molecule": "Cc1cc(Oc2cccnc2)c(S(C)(=O)=O)cc1C(=O)N=C(N)N", "melting point": "221 to 224 °C"}
{"molecule": "O=C(Nc1ccc(F)c(CBr)c1)c1ccccn1", "melting point": "137 to 138 °C"}
{"molecule": "O=C(Oc1cc(F)ccc1[N+](=O)[O-])c1cc2ccccc2oc1=O", "melting point": "219 to 223 °C"}
{"molecule": "CCOC(=O)c1c(C)n(C)c(-c2ccccc2)cc1=O", "melting point": "154 °C"}
{"molecule": "CCCCNC(=O)N1CCC(c2nc(-c3ccc(-c4ccccc4)cc3)c[nH]2)CC1", "melting point": "99 to 100 °C"}
{"molecule": "CC1(C=O)COC2(CCCCCCCCCCC2)OO1 (centres undefined)", "melting point": "88 to 89 °C"}
{"molecule": "N#Cc1cc2c(cc1O)OCC21C(=O)N(Cc2ccccc2C(F)(F)F)c2ccccc21 (centres undefined)", "melting point": "122 to 124 °C"}
{"molecule": "COC1=N/C(=C\\c2c[nH]c3ncc(Cl)cc23)C(=O)N1c1ccccc1", "melting point": "228 °C"}
{"molecule": "CS(=O)c1ccc2c(c1)OC(C)(C)O2 (centres undefined)", "melting point": "87 to 88 °C"}
{"molecule": "COc1ccc(/C=C/S(=O)(=O)CS(=O)(=O)/C=C/c2ccc(O)c(OC)c2)cc1O", "melting point": "148 to 150 °C"}
{"molecule": "Cc1ccccc1C(CCC(=O)O)Oc1cc(OCc2ccsc2)ccc1C#N (centres undefined)", "melting point": "143 °C"}
{"molecule": "C[C@H]([C@](O)(Cn1cncn1)c1ccc(F)cc1F)S(=O)(=O)N1CCN(c2ncccn2)CC1", "melting point": "101 to 108 °C"}
{"molecule": "Cc1cnc2c(S(=O)(=O)Cl)cccc2c1", "melting point": "158 to 159 °C"}
{"molecule": "CCCc1nc(C(C)(C)O)c(C(=O)OCC)n1Cc1ccc(-c2ccccc2C(=O)NC(C)(C)C)cc1", "melting point": "145 to 146 °C"}
{"molecule": "C[C@H]1C(=O)C2(CC2)C(=O)N1c1ccc(C#N)c(Cl)c1", "melting point": "169 to 172 °C"}
{"molecule": "COc1cc(NC(=O)Nc2ccc(N3CCN(C(=O)Nc4cc(OCCO)ccc4Cl)CC3)cc2)cc(OC)c1", "melting point": "191 to 192 °C"}
{"molecule": "CC1(C)CCC(C)(C)c2cc(C(=O)SCc3ccc(C(=O)O)cc3)ccc21", "melting point": "150 to 151 °C"}
{"molecule": "CC1=CCCC2C1(C)CCC(C)C2(C)CC1=CC(=O)C=CC1=O (centres undefined)", "melting point": "62 to 64 °C"}
{"molecule": "C[C@@H]1CCCC[C@H]1C(=O)O (relative stereo)", "melting point": "51 to 53 °C"}
{"molecule": "COc1cc2c(c(C(=O)O)c1OC)CCN(Cc1ccccc1)CC2c1ccccc1 (centres undefined)", "melting point": "145 to 153 °C"}
{"molecule": "CC1(C)CC(=O)C(C(=S)Nc2ccc(Cl)c(C(F)(F)F)c2)C(=O)C1", "melting point": "101 to 102 °C"}
{"molecule": "CC(C)N(CCC(CCN(C)C1CCCCC1)(C(N)=O)c1ccccc1)C(C)C (centres undefined)", "melting point": "90 to 91 °C"}
{"molecule": "CCOC(=O)c1cnc2c(c(C)nn2-c2ccccc2)c1N(Cc1ccccc1)S(=O)(=O)c1ccc(OC)cc1", "melting point": "164 to 166 °C"}
{"molecule": "O=C(O)Cc1ccc(OCCNC(=O)C2Cc3ccccc3N2S(=O)(=O)c2ccc(-c3ccc(Cl)cc3)c(C(F)(F)F)c2)cc1 (centres undefined)", "melting point": "92 °C"}
{"molecule": "Cc1c(-c2cc(C(F)(F)F)cc(C(F)(F)F)c2)c(F)cc2nc(N)nc(N)c12", "melting point": "224 to 225 °C"}
{"molecule": "CC(C)CNC(=O)COc1ccc(C2=NNC(=O)NC2C)cc1Cl (centres undefined)", "melting point": "205 to 206 °C"}
{"molecule": "CCOC(=O)c1sc2cc(OCc3cccnc3)ccc2c1S(=O)(=O)c1ccccc1", "melting point": "120 to 122 °C"}
{"molecule": "COc1ccc(-c2cc(=O)c3c(OC)cc(OC)c(C4=CCN(C)CC4)c3o2)c(OC)c1OC", "melting point": "209 to 210 °C"}
{"molecule": "CC(=O)Nc1cccc2c1C(=O)c1c-2n[nH]c1-c1cccnc1", "melting point": "> 300 °C"}
{"molecule": "CN1CC2Cc3ccc(Cl)cc3C(=O)C2C1 (centres undefined)", "melting point": "148 to 150 °C"}
{"molecule": "CCOC(=O)c1ccc(NC(=O)CCCCCc2ccc(Cl)cc2)cc1", "melting point": "107 to 108 °C"}
{"molecule": "NC(=O)Cc1ccc2c(c1)CCc1cccnc1O2", "melting point": "164 to 165 °C"}
{"molecule": "Cc1cc(NCCO)c2nn(C)c(C)c2n1", "melting point": "186 to 189 °C"}
{"molecule": "Cc1nnc(-c2ccc3occ(-c4cnn(Cc5cccnc5)c4)c3c2)o1", "melting point": "137 to 138 °C"}
